Tgt: GPR73 (prokineticin 1 receptor) (Homo sapiens)
Construct: expressed in transfected cells; host or cells: HEK 293
Sequence (Q8TCW9 whole entry, species assumed): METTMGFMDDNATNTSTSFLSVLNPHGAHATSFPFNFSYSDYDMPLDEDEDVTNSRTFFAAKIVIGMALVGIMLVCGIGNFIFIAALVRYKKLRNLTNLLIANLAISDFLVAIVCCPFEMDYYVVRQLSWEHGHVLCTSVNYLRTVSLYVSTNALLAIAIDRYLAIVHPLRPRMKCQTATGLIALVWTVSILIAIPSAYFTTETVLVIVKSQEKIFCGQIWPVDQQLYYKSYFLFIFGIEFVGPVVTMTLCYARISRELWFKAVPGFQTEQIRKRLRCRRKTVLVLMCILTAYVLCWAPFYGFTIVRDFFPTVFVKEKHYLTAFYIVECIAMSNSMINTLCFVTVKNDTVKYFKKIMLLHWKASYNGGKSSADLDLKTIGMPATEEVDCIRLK
Assay Comment: PK1 functional assay: Ca2+ mobilization screening for PK1 antagonists on the FLIPR
Format: cell-based
Test Settings: HEK293, 10 μM compound; HEK 293 GPR73 cells; multiple values = multiple testing; read-out: Ca^2+ Mobilization % Inh @ 10 μM
Parameter: inhibition at 10 µM. Scope: all listed entries.
Recorded Metric: inhibition at 10 µM

COc1ccc(Cn2c(=O)nc(NCc3cccnc3N)n(CC3CCC(OC)CC3)c2=O)cc1 (stereo not shown); 86%
COc1ccc(Cn2c(NCc3cnc(C)cc3C)nc(=O)n(Cc3ccc(OC)c(F)c3)c2=O)cc1; 94%
Cc1cc(C)c(CNc2nc(=O)n(Cc3ccc(C(N)=O)cc3)c(=O)n2Cc2ccc(OC(F)F)cc2)cn1; 49%
Cc1cc(C)c(CNc2nc(=O)n(Cc3ccc(F)cc3)c(=O)n2Cc2ccc(OC(F)F)cc2)cn1; 71%

Attribution: patent US20080287445A1
